# total protein half-life in vivo values compiled below
Test: total protein half-life in vivo (active degradation + dilution); higher = more stable protein
Details: wild type E. coli NCM3722; growth: P-lim chemostat; doubling time 12 h
Measurement Kind: total protein half-life in vivo (h)

Sequence Data	Test Result
MHINIAWQDVDTVLLDMDGTLLDLAFDNYFWQKLVPETWGAKNGVTPQEAMEYMRQQYHDVQHTLNWYCLDYWSEQLGLDICAMTTEMGPRAVLREDTIPFLEALKASGKQRILLTNAHPHNLAVKLEHTGLDAHLDLLLSTHTFGYPKEDQRLWHAVAEATGLKAERTLFIDDSEAILDAAAQFGIRYCLGVTNPDSGIAEKQYQRHPSLNDYRRLIPSLM	0.544
MNYEIKQEEKRTVAGFHLVGPWEQTVKKGFEQLMMWVDSKNIVPKEWVAVYYDNPDETPAEKLRCDTVVTVPGYFTLPENSEGVILTEITGGQYAVAVARVVGDDFAKPWYQFFNSLLQDSAYEMLPKPCFEVYLNNGAEDGYWDIEMYVAVQPKHH	6.49
MPLLKLWAGSLVMLAAVSLPLQAASPVKVGSKIDTEGALLGNIILQVLESHGVPTVNKVQLGTTPVVRGAITSGELDIYPEYTGNGAFFFKDENDAAWKNAQQGYEKVKKLDSEHNKLIWLTPAPANNTWTIAVRQDVAEKNKLTSLADLSRYLQEGGTFKLAASAEFIERADALPAFEKAYGFKLGQDQLLSLAGGDTAVTIKAAAQQTSGVNAAMAYGTDGPVAALGLQTLSDPQGVQPIYAPAPVVRESVLREYPQMAQWLQPVFASLDAKTLQQLNASIAVEGLDAKKVAADYLKQKGWTK	12
MNKSMLAGIGIGVAAALGVAAVASLNVFERGPQYAQVVSATPIKETVKTPRQECRNVTVTHRRPVQDENRITGSVLGAVAGGVIGHQFGGGRGKDVATVVGALGGGYAGNQIQGSLQESDTYTTTQQRCKTVYDKSEKMLGYDVTYKIGDQQGKIRMDRDPGTQIPLDSNGQLILNNKV [P0AB35]	1.21
MIEILHEYWKPLLWTDGYRFTGVAITLWLLILSVVIGGVLALFLAIGRVSSNKYIQFPIWLFTYIFRGTPLYVQLLVFYSGMYTLEIVKGTEFLNAFFRSGLNCTVLALTLNTCAYTTEIFAGAIRSVPHGEIEAARAYGFSTFKMYRCIILPSALRIALPAYSNEVILMLHSTALAFTATVPDLLKIARDINAATYQPFTAFGIAAVLYLIISYVLISLFRRAEKRWLQHVKPSSTH [P0AEU3]	11.9
MRLCDRDIEAWLDEGRLSINPRPPVERINGATVDVRLGNKFRTFRGHTAAFIDLSGPKDEVSAALDRVMSDEIVLDEGEAFYLHPGELALAVTLESVTLPADLVGWLDGRSSLARLGLMVHVTAHRIDPGWSGCIVLEFYNSGKLPLALRPGMLIGALSFEPLSGPAVRPYNRREDAKYRNQQGAVASRIDKD	10.4
MEFFKKTALAALVMGFSGAALALPNITILATGGTIAGGGDSATKSNYTVGKVGVENLVNAVPQLKDIANVKGEQVVNIGSQDMNDNVWLTLAKKINTDCDKTDGFVITHGTDTMEETAYFLDLTVKCDKPVVMVGAMRPSTSMSADGPFNLYNAVVTAADKASANRGVLVVMNDTVLDGRDVTKTNTTDVATFKSVNYGPLGYIHNGKIDYQRTPARKHTSDTPFDVSKLNELPKVGIVYNYANASDLPAKALVDAGYDGIVSAGVGNGNLYKSVFDTLATAAKTGTAVVRSSRVPTGATTQDAEVDDAKYGFVASGTLNPQKARVLLQLALTQTKDPQQIQQIFNQY	13
